FYI, the data here is from PubChem BioAssay (EPA / NIEHS).

- Experimental Details: ATG_AP_2_CIS: Attagene CIS-FACTORIAL HepG2 Assay for human Activator Protein 2 (AP-2) (AID 2282932)
- Test Parameters: HepG2 AP-2 cis-reporter, Attagene transcription factor profiling; actives raise or lower the signal
- Description: ATG_CIS is a cell-based, multiplexed-readout assay that uses HepG2, a human liver cell line, with measurements taken at 24 hours after chemical dosing in a 24-well plate.ATG_AP_2_CIS is one of 52 assay component(s) measured or calculated from the ATG_CIS assay. […] This assay endpoint, ATG_AP_2_CIS, was analyzed with bidirectional fitting relative to DMSO as the negative control and baseline of activity. […]
Activity calls are given as the source filed them. Rule for the calls: active = hit-call score of the fitted dose curve at least 0.9, where 1 is the maximum; inactive = score below 0.9.
Labels: YES (active), NO (inactive)

1. CCCC(=O)OCCC(C)C : NO
2. CC[C@H](NC(=O)c1cc(F)ccc1NS(=O)(=O)c1cccc2cccnc12)c1ccccc1 : NO
3. CC(C)(O)c1ccc(CNC(=O)c2cccnc2Oc2ccc3nonc3c2)cc1 : NO
4. CC(C)(C)c1cc(/C=C2\SC(N)=NC2=O)cc(C(C)(C)C)c1O : NO
5. CCCOC(=O)c1cc(O)c(O)c(O)c1 : NO
6. O=C1O[C@H]([C@@H](O)CO)C(O)=C1O : NO
7. CCN(Cc1cccc(S(=O)(=O)O)c1)c1ccc(C(=C2C=CC(=[N+](CC)Cc3cccc(S(=O)(=O)O)c3)C=C2)c2ccccc2S(=O)(=O)[O-])cc1 : NO
8. COc1cc(C(=O)NC2CCN(C)CC2)ccc1Nc1ncc2c(n1)N(C1CCCC1)CC(F)(F)C(=O)N2C : YES
9. CCCCCCCCN(C)CCCCCCCC : NO
10. C[C@]12CC[C@@H]3c4ccc(O)cc4CC[C@H]3[C@@H]1CC[C@H]2O : NO
